measurement-description: Dissolution of bulk lots handfilled into capsules, 0.1% aqueous polysorbate 80, USP Apparatus II
Assay type: physicochemical
experimental-conditions: Table 8, 10 minutes; hydrochloride
Counter-ions that a name gives are not always drawn.
In this section, each of the molecules is paired with its reported % Dissolved at 10 Minutes.
Show the value, then the unit it is measured in.

Data request: What does the record list as % Dissolved at 10 Minutes for O=C(c1ccc(OCCN2CCCCC2)cc1)c1c(-c2ccc(O)cc2)sc2cc(O)ccc12 [Lot #4, raloxifene hydrochloride] ?
Data returned: 15%

----------
measurement-description: Dissolution of bulk lots handfilled into capsules, 0.1% aqueous polysorbate 80, USP Apparatus II
Assay type: physicochemical
experimental-conditions: 10 min; 60.0 mg in capsule; hydrochloride
Counter-ions that a name gives are not always drawn.
assay-endpoint: % Dissolved (%)
// units = %; emit number, no label

Examples with answers:
{"columns": ["compound", "units-label", "% Dissolved"],
 "data": [
  ["O=C(c1ccc(OCCN2CCCCC2)cc1)c1c(-c2ccc(O)cc2)sc2cc(O)ccc12 [Lot #2, raloxifene hydrochloride]", "%", 41],
  ["O=C(c1ccc(OCCN2CCCCC2)cc1)c1c(-c2ccc(O)cc2)sc2cc(O)ccc12 [Lot #1, raloxifene hydrochloride]", "%", 51],
  ["O=C(c1ccc(OCCN2CCCCC2)cc1)c1c(-c2ccc(O)cc2)sc2cc(O)ccc12 [Lot #3, raloxifene hydrochloride]", "%", 31]
]}

Data request: I have this compound here, O=C(c1ccc(OCCN2CCCCC2)cc1)c1c(-c2ccc(O)cc2)sc2cc(O)ccc12 [Lot #4, raloxifene hydrochloride] , and I need its recorded % Dissolved.
Data returned: 15

----------
Below: a set of entries, each annotated with reported AUC.
measurement-description: Plasma AUC of unconjugated raloxifene in rats dosed in diet
Format: in vivo, Fischer 344 rats
experimental-conditions: 0.4% w/w in diet for seven days, hydrochloride
Description: In an attempt to evaluate these differences upon in vivo absorption, a study was conducted in Fischer 344 rats.
Structures can show the parent of a compound that is named as a salt.
# value in ng·h/mL; strip the unit string

Worked set:
{"columns": ["compound", "AUC (ng·h/mL)"],
 "data": [
  ["O=C(c1ccc(OCCN2CCCCC2)cc1)c1c(-c2ccc(O)cc2)sc2cc(O)ccc12 [Lot #2, raloxifene hydrochloride]", 8037],
  ["O=C(c1ccc(OCCN2CCCCC2)cc1)c1c(-c2ccc(O)cc2)sc2cc(O)ccc12 [Lot #3, raloxifene hydrochloride]", 5743],
  ["O=C(c1ccc(OCCN2CCCCC2)cc1)c1c(-c2ccc(O)cc2)sc2cc(O)ccc12 [Lot #1, raloxifene hydrochloride]", 10056]
]}

// below: AUC requested for another compound
Data request: Which measured AUC value corresponds to O=C(c1ccc(OCCN2CCCCC2)cc1)c1c(-c2ccc(O)cc2)sc2cc(O)ccc12 [Lot #4, raloxifene hydrochloride] ?
Data returned: 3329

----------
measurement-description: Dissolution of bulk lots handfilled into capsules, 0.1% aqueous polysorbate 80, USP Apparatus II
Assay type: physicochemical
experimental-conditions: Table 8, 30 minutes; hydrochloride
Counter-ions that a name gives are not always drawn.
Recorded % Dissolved at 30 Minutes for the following molecules

{"columns": ["molecule", "% Dissolved at 30 Minutes"],
 "data": [
  ["O=C(c1ccc(OCCN2CCCCC2)cc1)c1c(-c2ccc(O)cc2)sc2cc(O)ccc12 [Lot #2, raloxifene hydrochloride]", "68%"],
  ["O=C(c1ccc(OCCN2CCCCC2)cc1)c1c(-c2ccc(O)cc2)sc2cc(O)ccc12 [Lot #1, raloxifene hydrochloride]", "78%"],
  ["O=C(c1ccc(OCCN2CCCCC2)cc1)c1c(-c2ccc(O)cc2)sc2cc(O)ccc12 [Lot #4, raloxifene hydrochloride]", "35%"]
]}

API: the following record is the query input.
Data request: Field request: % Dissolved at 30 Minutes | item: O=C(c1ccc(OCCN2CCCCC2)cc1)c1c(-c2ccc(O)cc2)sc2cc(O)ccc12 [Lot #3, raloxifene hydrochloride]
Data returned: 55%

----------
measurement-description: Dissolution of bulk lots handfilled into capsules, 0.1% aqueous polysorbate 80, USP Apparatus II
Type: physicochemical
experimental-conditions: 30 min; 60.0 mg in capsule; hydrochloride
Counter-ions that a name gives are not always drawn.
assay-endpoint: % Dissolved (%)
Report as a plain number; the unit % is understood.

{"columns": ["compound", "% Dissolved [%]"],
 "data": [
  ["O=C(c1ccc(OCCN2CCCCC2)cc1)c1c(-c2ccc(O)cc2)sc2cc(O)ccc12 [Lot #4, raloxifene hydrochloride]", 35]
]}

Data request: What measured % Dissolved goes with O=C(c1ccc(OCCN2CCCCC2)cc1)c1c(-c2ccc(O)cc2)sc2cc(O)ccc12 [Lot #2, raloxifene hydrochloride] ?
Data returned: 68

Data request: Input O=C(c1ccc(OCCN2CCCCC2)cc1)c1c(-c2ccc(O)cc2)sc2cc(O)ccc12 [Lot #3, raloxifene hydrochloride]
Data returned: 54

Data request: Try this compound next: O=C(c1ccc(OCCN2CCCCC2)cc1)c1c(-c2ccc(O)cc2)sc2cc(O)ccc12 [Lot #1, raloxifene hydrochloride]
Data returned: 78

----------
Reported % Dissolved values for the following compounds.
measurement-description: Dissolution of bulk lots handfilled into capsules, 0.1% aqueous polysorbate 80, USP Apparatus II
Type: physicochemical
experimental-conditions: 45 min; 60.0 mg in capsule; hydrochloride
Counter-ions that a name gives are not always drawn.
Provide only the numeric value, understood in %.

Reference set, count: 3
{"columns": ["compound", "% Dissolved [%]"],
 "data": [
  ["O=C(c1ccc(OCCN2CCCCC2)cc1)c1c(-c2ccc(O)cc2)sc2cc(O)ccc12 [Lot #2, raloxifene hydrochloride]", 74],
  ["O=C(c1ccc(OCCN2CCCCC2)cc1)c1c(-c2ccc(O)cc2)sc2cc(O)ccc12 [Lot #4, raloxifene hydrochloride]", 49],
  ["O=C(c1ccc(OCCN2CCCCC2)cc1)c1c(-c2ccc(O)cc2)sc2cc(O)ccc12 [Lot #3, raloxifene hydrochloride]", 64]
]}

Data request: Fill in: % Dissolved of O=C(c1ccc(OCCN2CCCCC2)cc1)c1c(-c2ccc(O)cc2)sc2cc(O)ccc12 [Lot #1, raloxifene hydrochloride] is ___
Data returned: 88

----------
measurement-description: Dissolution of bulk lots handfilled into capsules, 0.1% aqueous polysorbate 80, USP Apparatus II
Type: physicochemical
experimental-conditions: 20 min; 60.0 mg in capsule; hydrochloride
Where a name gives a salt, the structure may show the parent alone.
Quick reference: % Dissolved of the listed items.

Data request: If you can, please state the reported % Dissolved value of O=C(c1ccc(OCCN2CCCCC2)cc1)c1c(-c2ccc(O)cc2)sc2cc(O)ccc12 [Lot #4, raloxifene hydrochloride] .
Data returned: 27%

Data request: What would you report for O=C(c1ccc(OCCN2CCCCC2)cc1)c1c(-c2ccc(O)cc2)sc2cc(O)ccc12 [Lot #2, raloxifene hydrochloride] ?
Data returned: 60%

Data request: Try O=C(c1ccc(OCCN2CCCCC2)cc1)c1c(-c2ccc(O)cc2)sc2cc(O)ccc12 [Lot #3, raloxifene hydrochloride] next.
Data returned: 45%

Data request: Record: O=C(c1ccc(OCCN2CCCCC2)cc1)c1c(-c2ccc(O)cc2)sc2cc(O)ccc12 [Lot #1, raloxifene hydrochloride]
Data returned: 68%

----------
Quick reference: % Dissolved at 10 Minutes of the listed items.
measurement-description: Dissolution of bulk lots handfilled into capsules, 0.1% aqueous polysorbate 80, USP Apparatus II
Format: physicochemical
experimental-conditions: Table 8, 10 minutes; hydrochloride
Structures can show the parent of a compound that is named as a salt.
# output: number + unit

{"columns": ["compound", "% Dissolved at 10 Minutes"],
 "data": [
  ["O=C(c1ccc(OCCN2CCCCC2)cc1)c1c(-c2ccc(O)cc2)sc2cc(O)ccc12 [Lot #3, raloxifene hydrochloride]", "31%"],
  ["O=C(c1ccc(OCCN2CCCCC2)cc1)c1c(-c2ccc(O)cc2)sc2cc(O)ccc12 [Lot #2, raloxifene hydrochloride]", "41%"]
]}

// next entry
Data request: What does the record list as % Dissolved at 10 Minutes for O=C(c1ccc(OCCN2CCCCC2)cc1)c1c(-c2ccc(O)cc2)sc2cc(O)ccc12 [Lot #1, raloxifene hydrochloride] ?
Data returned: 50%
